# Tested on: HCT-116
# PROCEDURE_TEXT: Cytotoxicity against human HCT-116 cells assessed as reduction in cell viability measured after 72 hrs by MTT assay
# Format: functional, cell-based
# MEASUREMENT_PARAMETERS: HCT-116, 72 h
MEASURED_PARAMETER: pIC50
In plain terms, pIC50 is the concentration in mol/L turned into minus its base-10 logarithm.

Q: Observed pIC50 on HCT-116 for O=C(/C=C/c1ccc(NC(=O)Nc2ccccc2)cc1)NO , please.
Result: 5.19

Q: Quick one: O=C(Nc1ccc(C(=O)NO)cc1)Nc1ccc([N+](=O)[O-])cc1
Result: 4.55

Q: Next entry: O=C(CCc1ccc(NC(=O)Nc2ccccc2)cc1)NO
Result: 4.79

Q: Please give the result for COc1ccc(NC(=O)Nc2ccc(CCC(=O)NO)cc2)cc1 too.
Result: 4.51

Q: And for O=C(CCc1ccc(NC(=O)Nc2ccc([N+](=O)[O-])cc2)cc1)NO ?
Result: 5.20

Q: Also O=C(Nc1ccccc1)Nc1ccc(C(=O)NO)cc1 , if possible.
Result: 4.83

Q: Follow-up item: O=C(CCc1ccc(NC(=O)Nc2ccc(Cl)cc2)cc1)NO
Result: 4.75

Q: Same question, COc1ccc(NC(=O)Nc2ccc(/C=C/C(=O)NO)cc2)cc1 this time
Result: 4.93

Q: Request: COc1ccc(NC(=O)Nc2ccc(C(=O)NO)cc2)cc1
Result: 4.65

Q: And O=C(/C=C/c1ccc(NC(=O)Nc2ccc([N+](=O)[O-])cc2)cc1)NO ?
Result: 4.90

Q: Try O=C(/C=C/c1ccc(NC(=O)Nc2ccc(Cl)cc2)cc1)NO next.
Result: 4.52

----------
# System: NAMALVA
# PROCEDURE_TEXT: Induction of apoptosis in human NAMALVA cells assessed as viable cells at 0.5 times IC50 measured after 48 hrs by Annexin V-FITC/7AAD staining based flow cytometry (reference value: 90.4%)
# Format: functional
MEASURED_PARAMETER: Activity (%)
Value expressed in %; do not type the unit.

Q: May I ask what Activity has been recorded for O=C(/C=C/c1ccc(NC(=O)Nc2ccc([N+](=O)[O-])cc2)cc1)NO ?
Result: 82.8

Q: Okay, and O=C(/C=C/c1ccc(NC(=O)Nc2ccccc2)cc1)NO ?
Result: 81.4

Q: Moving on to O=C(/C=C/c1ccc(NC(=O)Nc2ccc(Cl)cc2)cc1)NO
Result: 72.5

Q: Same read-out for COc1ccc(NC(=O)Nc2ccc(/C=C/C(=O)NO)cc2)cc1 ?
Result: 82.9

----------
# System: Jurkat
# PROCEDURE_TEXT: Induction of apoptosis in human Jurkat cells assessed as late apoptotic cells at 0.5 times IC50 measured after 48 hrs by Annexin V-FITC/7AAD staining based flow cytometry (reference value: 6.77%)
# Type: functional
For each of the molecules below, state its Activity.
A number alone suffices; assume %.

Q: What measured Activity goes with O=C(/C=C/c1ccc(NC(=O)Nc2ccccc2)cc1)NO ?
Result: 4.39

Q: Follow-up entry: COc1ccc(NC(=O)Nc2ccc(/C=C/C(=O)NO)cc2)cc1
Result: 7.77

Q: Entry to check: O=C(/C=C/c1ccc(NC(=O)Nc2ccc(Cl)cc2)cc1)NO
Result: 4.28

Q: Could you do the same for O=C(/C=C/c1ccc(NC(=O)Nc2ccc([N+](=O)[O-])cc2)cc1)NO , please?
Result: 7.03
